# TEST TARGET: hemoglobin (Hb) (Homo sapiens, UniProt P68871+P69905)
# Sequence (P69905 2-142 limits assumed): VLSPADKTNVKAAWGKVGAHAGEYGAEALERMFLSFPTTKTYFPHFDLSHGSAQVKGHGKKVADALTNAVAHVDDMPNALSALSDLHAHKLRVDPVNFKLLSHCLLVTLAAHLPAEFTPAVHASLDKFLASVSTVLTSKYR
# Sequence (P68871 2-147 limits assumed): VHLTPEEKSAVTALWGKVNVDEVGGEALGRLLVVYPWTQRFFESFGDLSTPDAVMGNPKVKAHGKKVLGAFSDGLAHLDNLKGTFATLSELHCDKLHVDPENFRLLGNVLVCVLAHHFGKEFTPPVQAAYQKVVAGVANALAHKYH
# TEST METHOD NOTES: Hydrogen peroxide scavenging ability with hemoglobin (Amplex Red H2O2 assay)
# Type: biochemical
# ASSAY SETUP: (DMSO); 10 μM H2O2, 80 μg/ml hemoglobin, 37° C. about 30 minutes
pEC50: −log10 of the molar value.
QUANTITY NAME: pEC50

{"SMILES ENTRY": "CNc1ccc(NCCCc2ccc(C(F)(F)F)cc2)cc1", "QUANTITY NAME": "pEC50", "VALUE OBSERVED": 6.52}

I: Nc1ccc(NCCCc2ccc(C(F)(F)F)cc2)cc1
II: CN(C)c1ccc(NCCCc2ccc(C(F)(F)F)cc2)cc1
Sorting ascending by pEC50, which comes first: I or II ? Choose, then provide that item's label.
I

----------
# TEST TARGET: hemoglobin (Hb) (Homo sapiens, UniProt P68871+P69905)
# TEST METHOD NOTES: Hydrogen peroxide scavenging ability with hemoglobin (Amplex Red H2O2 assay)
# Type: biochemical
# ASSAY SETUP: 10 μM H2O2, 80 μg/ml hemoglobin, 37° C. about 30 minutes
QUANTITY NAME: EC50 (nM)

{"SMILES ENTRY": "CN(C)c1ccc(NCCc2ccc(C(F)(F)F)cc2)cc1", "TEST TARGET": "hemoglobin (Hb) (Homo sapiens, UniProt P68871+P69905)", "UNIT SYMBOL": "nM", "VALUE OBSERVED": 540}

I: CNc1ccc(NCCc2cccc(OC)c2)cc1
II: CNc1ccc(NCCc2cccc(C(F)(F)F)c2)cc1
Two entries are listed, I and II . Which one carries the higher EC50? Please identify the chosen entry by its label.
I
(I: 610 nM, II: 190 nM)

P: CNc1ccc(NCCc2ccc(OC)cc2)cc1
Q: CN(C)c1ccc(NCCc2ccc(F)cc2)cc1
R: CNc1ccc(NCCc2ccccc2C(F)(F)F)cc1
Thanks in advance: please rank these 3 entries by EC50, highest to lowest. I'd appreciate it if you listed the labels in the requested order.
P, Q, R

----------
# TEST TARGET: hemoglobin (Hb) (Homo sapiens, UniProt P68871+P69905)
# TEST METHOD NOTES: Hydrogen peroxide scavenging ability with hemoglobin (Amplex Red H2O2 assay)
# Format: biochemical
# ASSAY SETUP: 10 μM H2O2, 80 μg/ml hemoglobin, 37° C. about 30 minutes
QUANTITY NAME: EC50 (nM)

Please review the following examples before continuing.
{"COMPOUND": "CNc1ccc(NCCc2ccccc2OC)cc1 [Example 21]", "EC50 (nM)": 60}
{"COMPOUND": "Nc1ccc(NCCc2ccccc2Cl)cc1 [Example 15]", "EC50 (nM)": 590}
{"COMPOUND": "CN(C)c1ccc(NCCc2ccc(Cl)cc2)cc1 [Example 6]", "EC50 (nM)": 270}
{"COMPOUND": "CNc1ccc(NCCc2cccc(Cl)c2)cc1 [Example 20]", "EC50 (nM)": 260}

A: CN(C)c1ccc(NCCc2cccc(Cl)c2)cc1 [Example 5]
B: O=C(O)c1cc(NCCc2ccc(C(F)(F)F)cc2)ccc1O [AAD-2004, reference compound]
C: Nc1ccc(NCCc2ccc(C(F)(F)F)cc2)cc1 [Example 9]
Provide the items ranked by increasing EC50. List the labels according to the requested ordering.
C, A, B

I: COc1ccc(CCNc2ccc(N(C)C)cc2)cc1 [Example 7]
II: Nc1ccc(NCCc2cccc(C(F)(F)F)c2)cc1 [Example 13]
Record comparison, field EC50: mark the lower of I and II . To answer, give the label that identifies your chosen option.
I
